- Test system: HepG2
- measurement-notes: cytotoxicity call (relative viability < 0.9)
- run-conditions: 10 µM
The whole screen tested about 39,000 compounds, of which about 3,300 (8.5%) were called active. The full list was thinned out, with actives kept by preference.
Outcomes: active, inactive

compound	category-label
CC1(C)C(=O)C2OC2C2(C)C1CC(O)C1(C)C2CCC2(C)C(c3ccoc3)OC(=O)C3OC321 (stereo not drawn) [1,2alpha-EPOXYDEACETOXYDIHYDROGEDUNIN ]	inactive
Cc1cc([C@@H](C#N)c2ccc(Cl)cc2)c(Cl)cc1NC(=O)c1cc(I)cc(I)c1O	inactive
COC(=O)[C@H]1[C@H](CO)[C@H]2Cn3c(cccc3=O)[C@@H]1N2C(=O)C1CC1	inactive
CC(=O)OC(C)(C)/C=C/C(=O)C(C)(O)[C@H]1[C@H](O)C[C@@]2(C)[C@H]3CC=C4[C@@H](C[C@H](O)C(=O)C4(C)C)[C@]3(C)C(=O)C[C@]12C (some centres not stated)	active
COC(=O)[C@]1(Cc2ccccc2CN=[N+]=[N-])N=C(c2ccc(OCCCO)cc2)O[C@@H]1c1ccccc1CN=[N+]=[N-]	active
C[C@@H](N)C(=O)N[C@@H](CO)C(=O)N[C@H](C(=O)N[C@H](C(=O)N[C@H](C(=O)N[C@@H](CC(N)=O)C(=O)N[C@@H](Cc1ccc(O)cc1)C(=O)N[C@H](C(N)=O)[C@@H](C)O)[C@@H](C)O)[C@@H](C)O)[C@@H](C)O	inactive
Nc1ncccc1CN1CC[C@]2(CC(=O)NC2=O)C1	inactive
Nc1ccc(-c2ccccc2)cc1	inactive
COC(=O)[C@@]1(Cc2ccccc2CN=[N+]=[N-])N=C(c2ccc(OCCCO)cc2)O[C@H]1c1ccccc1CN=[N+]=[N-]	inactive
NC(=O)c1cc([N+](=O)[O-])cc([N+](=O)[O-])c1	inactive
COC(=O)[C@]1(Cc2ccccc2N=[N+]=[N-])N=C(c2ccc(OCCCO)cc2)O[C@@H]1c1ccccc1N=[N+]=[N-]	active
COC(=O)[C@@]1(Cc2ccccc2N=[N+]=[N-])N=C(c2ccc(OCCCO)cc2)O[C@H]1c1ccccc1N=[N+]=[N-]	inactive
NC(=O)c1ccc(N)nc1	active
CC(C)(O)/C=C/C(=O)[C@](C)(O)[C@H]1[C@H](O)C[C@@]2(C)[C@H]3CC=C4[C@@H](CC(=O)C(=O)C4(C)C)[C@]3(C)C(=O)C[C@]12C	active
CNCC(=O)c1ccc(O)c(O)c1.Cl	inactive
